Biological target: furin, P09958;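 further: purified furin at 1:10 enzyme:substrate in 50 mM HEPES pH 7.5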
Sequence (P09958 whole entry): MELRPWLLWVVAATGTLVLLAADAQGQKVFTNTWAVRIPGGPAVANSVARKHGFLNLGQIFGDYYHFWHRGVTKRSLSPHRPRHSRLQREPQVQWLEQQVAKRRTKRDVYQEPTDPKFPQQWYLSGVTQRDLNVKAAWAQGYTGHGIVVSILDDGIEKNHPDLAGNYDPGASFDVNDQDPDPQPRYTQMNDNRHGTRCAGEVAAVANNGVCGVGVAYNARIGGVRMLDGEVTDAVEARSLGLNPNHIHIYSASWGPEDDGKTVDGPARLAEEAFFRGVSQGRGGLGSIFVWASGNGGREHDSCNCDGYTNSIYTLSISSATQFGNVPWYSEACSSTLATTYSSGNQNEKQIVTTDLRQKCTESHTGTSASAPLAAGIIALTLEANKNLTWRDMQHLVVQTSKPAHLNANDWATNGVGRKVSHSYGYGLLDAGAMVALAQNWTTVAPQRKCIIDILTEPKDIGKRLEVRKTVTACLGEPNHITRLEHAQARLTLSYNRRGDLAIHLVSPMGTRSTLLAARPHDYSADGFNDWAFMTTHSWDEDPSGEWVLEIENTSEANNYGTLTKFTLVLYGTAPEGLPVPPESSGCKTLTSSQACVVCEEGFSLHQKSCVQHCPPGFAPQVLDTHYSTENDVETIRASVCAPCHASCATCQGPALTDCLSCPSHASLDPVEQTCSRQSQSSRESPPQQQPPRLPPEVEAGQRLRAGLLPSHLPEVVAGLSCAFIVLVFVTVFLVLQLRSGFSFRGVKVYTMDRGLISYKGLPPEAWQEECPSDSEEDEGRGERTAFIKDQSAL
Experiment: furin cleavage Z-score vs untreated control; higher = more cleavage, active = 3.5 or more, inactive = 1 or less, 8 variable residues between constant flanks
Conditions: 7.5 min
Some of the results follow. How many sequences the whole screen found active is unknown.
READOUT_TYPE: furin cleavage Z-score
// print number alone

Assign furin cleavage Z-score to the following record: CARQKRDANSAGNASASA [FS-2506]
10.9

Assign furin cleavage Z-score to the following record: CARAGRSGKEAGNASASA [FS-1990]
0.457

Assign furin cleavage Z-score to the following record: CARVFRQVEKAGNASASA [FS-2386]
-1.6
